conditions: in ethyl formate, 318.15 K
property name: solubility (mole fraction)

[[record]]
molecule = "CC(=O)OC(c1ccccc1)C(Cl)(Cl)Cl (stereo unspecified)"
result = 0.274


* * *

settings: in methanol, 323.15 K
property name: solubility (mole fraction)

[[record]]
compound = "CC(=O)OC(c1ccccc1)C(Cl)(Cl)Cl (stereo unspecified)"
result_number = 0.0342


* * *

details: in ethyl formate, 323.15 K
property name: solubility (mole fraction)

[[record]]
compound = "CC(=O)OC(c1ccccc1)C(Cl)(Cl)Cl (stereo unspecified)"
result_number = 0.314


* * *

details: in ethanol, 288.15 K
property name: solubility (mole fraction)

[[record]]
compound = "CC(=O)OC(c1ccccc1)C(Cl)(Cl)Cl (stereo unspecified)"
property_name = "solubility (mole fraction)"
result = 0.00865


Values were extracted from BigSolDB 2.1.
